Item-by-item account of Ki
measured.target: glucocorticoid receptor (GR) (Homo sapiens)
Construct: endogenous in cells
Sequence (P04150 whole entry): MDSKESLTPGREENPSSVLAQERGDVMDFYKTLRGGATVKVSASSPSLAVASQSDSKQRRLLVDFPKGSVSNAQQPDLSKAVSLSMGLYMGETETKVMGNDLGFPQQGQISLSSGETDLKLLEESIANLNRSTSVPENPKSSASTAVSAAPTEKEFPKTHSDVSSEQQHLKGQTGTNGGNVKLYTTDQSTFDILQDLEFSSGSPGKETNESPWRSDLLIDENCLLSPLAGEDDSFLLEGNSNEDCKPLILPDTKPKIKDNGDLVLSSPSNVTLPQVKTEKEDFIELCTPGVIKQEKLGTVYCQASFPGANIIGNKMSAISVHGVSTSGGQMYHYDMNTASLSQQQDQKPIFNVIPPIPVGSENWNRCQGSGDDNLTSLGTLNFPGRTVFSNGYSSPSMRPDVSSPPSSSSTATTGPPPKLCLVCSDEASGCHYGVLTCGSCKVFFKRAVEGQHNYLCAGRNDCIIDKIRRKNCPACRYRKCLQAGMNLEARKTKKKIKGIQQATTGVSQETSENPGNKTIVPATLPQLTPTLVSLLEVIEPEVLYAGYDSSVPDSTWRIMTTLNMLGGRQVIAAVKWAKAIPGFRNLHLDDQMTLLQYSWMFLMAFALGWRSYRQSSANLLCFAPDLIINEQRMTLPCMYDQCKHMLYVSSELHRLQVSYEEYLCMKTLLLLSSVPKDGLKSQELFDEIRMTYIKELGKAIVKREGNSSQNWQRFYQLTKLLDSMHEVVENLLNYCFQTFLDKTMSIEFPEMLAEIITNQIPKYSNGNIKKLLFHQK
test.name: GR Ligand Binding Assay (3H-dexamethasone displacement, HeLa cell lysate)
test.parameters: 3H-DEX trace, DEX as reference, read-out: GR BIND Ki
Report only the number, with the unit nM understood.

The cases that follow already have their Ki on record.
-- ask Report Ki for C[C@]12Cc3cnn(-c4ccc(F)cc4)c3C=C1CC[C@@]2(CO)CC(O)c1ccccc1 (single isomer, unassigned) [Example 13a]
-- reply 2.5

-- ask Indicate the recorded Ki value for this compound: C[C@]12Cc3cnn(-c4ccc(F)cc4)c3C=C1CC[C@@]2(CO)CC(O)C1CC1 (single isomer, unassigned) [Example 20b]
-- reply 15.1

-- ask Return the recorded Ki value; entry: C[C@]12Cc3cnn(-c4ccc(F)cc4)c3C=C1CC[C@@]2(CO)CC(O)c1ncccc1F (single isomer, unassigned) [Example 10b]
-- reply 1.8

-- ask Supply recorded Ki for C[C@]12Cc3cnn(-c4ccc(F)cc4)c3C=C1CC[C@@]2(CO)CC(O)c1ccncc1 (single isomer, unassigned) [Example 17a] here.
-- reply 6.4

-- ask Fill in reported Ki for this entry: C[C@]12Cc3cnn(-c4ccc(F)cc4)c3C=C1CC[C@@]2(CO)CC(O)c1cccnc1 (single isomer, unassigned) [Example 15a]
-- reply 10

-- ask Assign Ki to the following record: CC(C)C(O)C[C@]1(CO)CCC2=Cc3c(cnn3-c3ccc(F)cc3)C[C@@]21C (single isomer, unassigned) [Example 14a]
-- reply 6.4

-- ask Entry C[C@]12Cc3cnn(-c4ccc(F)cc4)c3C=C1CC[C@@]2(CO)CC(O)c1cc(F)cc(Cl)c1 (single isomer, unassigned) [Example 6b] needs its Ki filled in; supply it.
-- reply 1.3

-- ask Consider the compound C[C@]12Cc3cnn(-c4ccccc4)c3C=C1CC[C@@]2(CO)CC(O)c1cccnc1 (single isomer, unassigned) [Example 29a] and give its recorded Ki.
-- reply 11.8

***
-- ask Fill in reported Ki for this entry: Cc1cccc(C(O)C[C@]2(CO)CCC3=Cc4c(cnn4-c4ccc(F)cc4)C[C@@]32C)c1 (single isomer, unassigned) [Example 5a]
-- reply 1.4

-- ask Tell me Ki reported for COc1cccnc1C(O)C[C@]1(CO)CCC2=Cc3c(cnn3-c3cccc(F)c3)C[C@@]21C (single isomer, unassigned) [Example 26b]
-- reply 35.5

-- ask Give Ki for the following compound: C[C@]12Cc3cnn(-c4ccc(F)cc4)c3C=C1CC[C@@]2(CO)CC(O)c1ccccc1Cl (single isomer, unassigned) [Example 3a]
-- reply 0.9

-- ask Consider the compound C[C@]12Cc3cnn(-c4cccc(F)c4)c3C=C1CC[C@@]2(CO)CC(O)c1ccccn1 (single isomer, unassigned) [Example 19a] and give its recorded Ki.
-- reply 3.7
